biological target: Cytochrome P450 2D6 (Homo sapiens); test: Cytochrome P450 Family 2 Subfamily D Member 6 (CYP2D6) small molecule antagonists: luciferase reporter qHTS assay (AID 1671196); details: P450-Glo CYP2D6 enzyme assay, luciferin luminescence, 1 h; series mostly up to 115 µM; also: nearly all actives have a fitted effect of over 50% in size
Results filed as inconclusive are left out. The source made the active and inactive calls. Calls follow the shape of the dose curve; as a rule, active = well fitted inhibition curve with a large enough effect in the repeat runs; inconclusive = weak or mixed curves; inactive = no such curve, though single readings can be large or run the other way.
Thanks in advance; please answer with one of these: Yes = active, No = inactive

Example cases with answers are listed next.
{"columns": ["Compound", "Class assignment"],
 "data": [
  ["Cc1ccc(=O)n(-c2ccccc2)c1", "No"],
  ["CC/C=C\\CC/C=C/CO", "No"],
  ["O=C1CCCCCCCCCCCN1", "No"],
  ["Cc1cc2c(cc1S(N)(=O)=O)S(=O)(=O)CCC2", "No"],
  ["O=c1cc(-c2ccccc2)oc2ccccc12", "No"],
  ["CCCCCSCCCCC", "No"],
  ["ClC(Cl)(Br)Br", "Yes"],
  ["CCO/C([O-])=N/c1c[n+](N2CCOCC2)no1", "No"]
]}

Called result for Nc1c[n+](N2CCOCC2)no1
No

Which outcome did this test record for the compound CC(C)(O)C#CC(C)(C)O ?
No

Hi, sorry to bother you, what did the test record for OC1CCCCC1c1ccccc1 (centres undefined) ?
No

###

assay: qHTS RealTime-Glo MT Cell Viability Assay in HepG2 cells - 16 hour (AID 1224885); conditions: RealTime-Glo luminescence; series mostly up to 76.8 µM; also: nearly all actives have a fitted effect of over 50% in size
Results filed as inconclusive are left out. The source made the active and inactive calls. The call rests on the fitted dose curve; in most records, active means well fitted cell-killing curve with a large enough effect in the repeat runs; inconclusive means weak or mixed curves; inactive means flat fitted curve, though single readings scatter.

{"columns": ["Molecule", "activity change, negative = cytotoxic"],
 "data": [
  ["NS(=O)(=O)c1cc(C(=O)NN2C[C@H]3[C@H]4CCC(C4)[C@H]3C2)ccc1Cl", "inactive"],
  ["CCCCCOC(=O)CCCCC", "inactive"],
  ["CCC(=O)OC(C)c1ccccc1 (stereo not drawn)", "inactive"]
]}

###

assay: qHTS assay for identifying genotoxic compounds that show differential cytotoxicity against isogenic chicken DT40 cell lines with known DNA damage response pathways - Rad54/Ku70 mutant cell line (AID 743015); settings: DT40 Rad54/Ku70 mutant viability, CellTiter-Glo, 40 h; series mostly up to 66.8 µM; also: nearly all actives have a fitted effect of over 60% in size
Records with an inconclusive call do not appear. The source made the active and inactive calls. The call rests on the fitted dose curve; in most records, active means well fitted cell-killing curve with a large enough effect in the repeat runs; inconclusive means weak or mixed curves; inactive means no such curve, though single readings can be large or run the other way.

{"columns": ["Smiles repr", "outcome"],
 "data": [
  ["CCCCCCCCCCCCCCCCC", "inactive"],
  ["CC[N+](C)(C)c1cccc(O)c1", "inactive"],
  ["C=CCOCC(CC)(CO)COCC=C", "inactive"]
]}

###

molecular target: Cytochrome P450 1A2 (Homo sapiens); experiment: Cytochrome P450 Family 1 Subfamily A Member 2 (CYP1A2) small molecule antagonists: luciferase reporter qHTS assay (AID 1671199); settings: P450-Glo CYP1A2 enzyme, luciferin luminescence, 1 h; series mostly up to 53 µM; also: nearly all actives have a fitted effect of over 50% in size
Records with an inconclusive call do not appear. Activity calls are given as the source filed them. The call rests on the fitted dose curve; in most records, active means well fitted inhibition curve with a large enough effect in the repeat runs; inconclusive means weak or mixed curves; inactive means no such curve, though single readings can be large or run the other way.
Assign a class; possible classes are yes (1) (active), no (0) (inactive)

Previously resolved entries follow.
{"columns": ["Compound", "Class assignment"],
 "data": [
  ["CN(C(=O)c1c(O)c2ccccc2n(C)c1=O)c1ccccc1", "no (0)"],
  ["O=C(CCCN1CCN(c2ccccn2)CC1)c1ccc(F)cc1", "no (0)"],
  ["Cc1cccc(C)c1NC(=O)C(C)N (stereo unspecified)", "no (0)"],
  ["C[C@H]1C[C@@H](O)CC(C)(C)C1", "no (0)"]
]}

Given O=C[C@H](O)[C@@H](O)[C@H](O)[C@H](O)CO , state the outcome it received in this test.
no (0)

Measured values drawn from PubChem BioAssay (Tox21) for this set.
